Settings: in methyl acetate, 302.65 K
RESULT TYPE: solubility (mole fraction)
Answers are plain numbers.

Prompt: Entry `O=S(=O)(c1ccccc1)N(F)S(=O)(=O)c1ccccc1` needs its solubility (mole fraction) filled in; supply it.
Completion: 0.0803

====

Conditions: in isopropanol, 322.85 K
RESULT TYPE: solubility (mole fraction)
Give bare numbers.

Prompt: Entry `O=S(=O)(c1ccccc1)N(F)S(=O)(=O)c1ccccc1` needs its solubility (mole fraction) filled in; supply it.
Completion: 0.00495

====

Details: in n-propanol, 278.35 K
RESULT TYPE: solubility (mole fraction)

Prompt: Entry `O=S(=O)(c1ccccc1)N(F)S(=O)(=O)c1ccccc1` needs its solubility (mole fraction) filled in; supply it.
Completion: 0.000616

====

Conditions: in 2-pentanone, 273.35 K
RESULT TYPE: solubility (mole fraction)

Prompt: Entry `O=S(=O)(c1ccccc1)N(F)S(=O)(=O)c1ccccc1` needs its solubility (mole fraction) filled in; supply it.
Completion: 0.0316

====

Details: in toluene, 297.95 K
RESULT TYPE: solubility (mole fraction)
Answers are plain numbers.

Prompt: Entry `O=S(=O)(c1ccccc1)N(F)S(=O)(=O)c1ccccc1` needs its solubility (mole fraction) filled in; supply it.
Completion: 0.0346

====

Details: in n-butanol, 302.65 K
RESULT TYPE: solubility (mole fraction)

Prompt: Entry `O=S(=O)(c1ccccc1)N(F)S(=O)(=O)c1ccccc1` needs its solubility (mole fraction) filled in; supply it.
Completion: 0.00233

====

Details: in isobutanol, 292.85 K
RESULT TYPE: solubility (mole fraction)
Numbers only.

Prompt: Entry `O=S(=O)(c1ccccc1)N(F)S(=O)(=O)c1ccccc1` needs its solubility (mole fraction) filled in; supply it.
Completion: 0.000744

====

Conditions: in isopropanol, 288.35 K
RESULT TYPE: solubility (mole fraction)
One number for each entry.

Prompt: Entry `O=S(=O)(c1ccccc1)N(F)S(=O)(=O)c1ccccc1` needs its solubility (mole fraction) filled in; supply it.
Completion: 0.00121

====

Details: in n-propanol, 288.35 K
RESULT TYPE: solubility (mole fraction)

Prompt: Entry `O=S(=O)(c1ccccc1)N(F)S(=O)(=O)c1ccccc1` needs its solubility (mole fraction) filled in; supply it.
Completion: 0.00111

====

Details: in acetone, 278.35 K
RESULT TYPE: solubility (mole fraction)
One number for each entry.

Prompt: Entry `O=S(=O)(c1ccccc1)N(F)S(=O)(=O)c1ccccc1` needs its solubility (mole fraction) filled in; supply it.
Completion: 0.0376

====

Settings: in acetone, 312.55 K
RESULT TYPE: solubility (mole fraction)
Answers are plain numbers.

Prompt: Entry `O=S(=O)(c1ccccc1)N(F)S(=O)(=O)c1ccccc1` needs its solubility (mole fraction) filled in; supply it.
Completion: 0.119

====

Settings: in isopropanol, 278.35 K
RESULT TYPE: solubility (mole fraction)
Give bare numbers.

Prompt: Entry `O=S(=O)(c1ccccc1)N(F)S(=O)(=O)c1ccccc1` needs its solubility (mole fraction) filled in; supply it.
Completion: 0.000798

====

Settings: in methanol, 273.35 K
RESULT TYPE: solubility (mole fraction)
Numbers only.

Prompt: Entry `O=S(=O)(c1ccccc1)N(F)S(=O)(=O)c1ccccc1` needs its solubility (mole fraction) filled in; supply it.
Completion: 0.000611

====

Conditions: in n-pentanol, 302.65 K
RESULT TYPE: solubility (mole fraction)
Give bare numbers.

Prompt: Entry `O=S(=O)(c1ccccc1)N(F)S(=O)(=O)c1ccccc1` needs its solubility (mole fraction) filled in; supply it.
Completion: 0.00236

====

Conditions: in 2-butanone, 292.85 K
RESULT TYPE: solubility (mole fraction)
Numbers only.

Prompt: Entry `O=S(=O)(c1ccccc1)N(F)S(=O)(=O)c1ccccc1` needs its solubility (mole fraction) filled in; supply it.
Completion: 0.0637

====

Details: in ethyl formate, 322.85 K
RESULT TYPE: solubility (mole fraction)
Answers are plain numbers.

Prompt: Entry `O=S(=O)(c1ccccc1)N(F)S(=O)(=O)c1ccccc1` needs its solubility (mole fraction) filled in; supply it.
Completion: 0.116

====

Conditions: in n-pentanol, 288.35 K
RESULT TYPE: solubility (mole fraction)

Prompt: Entry `O=S(=O)(c1ccccc1)N(F)S(=O)(=O)c1ccccc1` needs its solubility (mole fraction) filled in; supply it.
Completion: 0.00112

====

Conditions: in ethanol, 292.85 K
RESULT TYPE: solubility (mole fraction)
Numbers only.

Prompt: Entry `O=S(=O)(c1ccccc1)N(F)S(=O)(=O)c1ccccc1` needs its solubility (mole fraction) filled in; supply it.
Completion: 0.00168

====

Conditions: in 2-pentanone, 316.95 K
RESULT TYPE: solubility (mole fraction)
Numbers only.

Prompt: Entry `O=S(=O)(c1ccccc1)N(F)S(=O)(=O)c1ccccc1` needs its solubility (mole fraction) filled in; supply it.
Completion: 0.131

====

Settings: in methanol, 312.55 K
RESULT TYPE: solubility (mole fraction)

Prompt: Entry `O=S(=O)(c1ccccc1)N(F)S(=O)(=O)c1ccccc1` needs its solubility (mole fraction) filled in; supply it.
Completion: 0.00374

====

Details: in acetonitrile, 278.35 K
RESULT TYPE: solubility (mole fraction)
One number for each entry.

Prompt: Entry `O=S(=O)(c1ccccc1)N(F)S(=O)(=O)c1ccccc1` needs its solubility (mole fraction) filled in; supply it.
Completion: 0.0126

====

Conditions: in toluene, 307.35 K
RESULT TYPE: solubility (mole fraction)
Give bare numbers.

Prompt: Entry `O=S(=O)(c1ccccc1)N(F)S(=O)(=O)c1ccccc1` needs its solubility (mole fraction) filled in; supply it.
Completion: 0.052

====

Conditions: in acetonitrile, 273.35 K
RESULT TYPE: solubility (mole fraction)
Numbers only.

Prompt: Entry `O=S(=O)(c1ccccc1)N(F)S(=O)(=O)c1ccccc1` needs its solubility (mole fraction) filled in; supply it.
Completion: 0.00951

====

Settings: in acetone, 302.65 K
RESULT TYPE: solubility (mole fraction)
Numbers only.

Prompt: Entry `O=S(=O)(c1ccccc1)N(F)S(=O)(=O)c1ccccc1` needs its solubility (mole fraction) filled in; supply it.
Completion: 0.0885

====

Settings: in 2-pentanone, 278.35 K
RESULT TYPE: solubility (mole fraction)
Give bare numbers.

Prompt: Entry `O=S(=O)(c1ccccc1)N(F)S(=O)(=O)c1ccccc1` needs its solubility (mole fraction) filled in; supply it.
Completion: 0.038

====

Conditions: in n-propanol, 302.65 K
RESULT TYPE: solubility (mole fraction)
Answers are plain numbers.

Prompt: Entry `O=S(=O)(c1ccccc1)N(F)S(=O)(=O)c1ccccc1` needs its solubility (mole fraction) filled in; supply it.
Completion: 0.00239

====

Settings: in ethanol, 273.35 K
RESULT TYPE: solubility (mole fraction)
Answers are plain numbers.

Prompt: Entry `O=S(=O)(c1ccccc1)N(F)S(=O)(=O)c1ccccc1` needs its solubility (mole fraction) filled in; supply it.
Completion: 0.000599

====

Settings: in 2-butanone, 278.35 K
RESULT TYPE: solubility (mole fraction)
One number for each entry.

Prompt: Entry `O=S(=O)(c1ccccc1)N(F)S(=O)(=O)c1ccccc1` needs its solubility (mole fraction) filled in; supply it.
Completion: 0.0396

====

Conditions: in 2-pentanone, 322.85 K
RESULT TYPE: solubility (mole fraction)
Give bare numbers.

Prompt: Entry `O=S(=O)(c1ccccc1)N(F)S(=O)(=O)c1ccccc1` needs its solubility (mole fraction) filled in; supply it.
Completion: 0.151

====

Details: in isopropanol, 292.85 K
RESULT TYPE: solubility (mole fraction)
Give bare numbers.

Prompt: Entry `O=S(=O)(c1ccccc1)N(F)S(=O)(=O)c1ccccc1` needs its solubility (mole fraction) filled in; supply it.
Completion: 0.0015

====

Settings: in isopropanol, 302.65 K
RESULT TYPE: solubility (mole fraction)
Numbers only.

Prompt: Entry `O=S(=O)(c1ccccc1)N(F)S(=O)(=O)c1ccccc1` needs its solubility (mole fraction) filled in; supply it.
Completion: 0.00226

====

Details: in 2-butanone, 283.35 K
RESULT TYPE: solubility (mole fraction)
One number for each entry.

Prompt: Entry `O=S(=O)(c1ccccc1)N(F)S(=O)(=O)c1ccccc1` needs its solubility (mole fraction) filled in; supply it.
Completion: 0.047

====

Settings: in toluene, 292.85 K
RESULT TYPE: solubility (mole fraction)

Prompt: Entry `O=S(=O)(c1ccccc1)N(F)S(=O)(=O)c1ccccc1` needs its solubility (mole fraction) filled in; supply it.
Completion: 0.0284

====

Conditions: in methyl acetate, 312.55 K
RESULT TYPE: solubility (mole fraction)

Prompt: Entry `O=S(=O)(c1ccccc1)N(F)S(=O)(=O)c1ccccc1` needs its solubility (mole fraction) filled in; supply it.
Completion: 0.107

====

Conditions: in ethanol, 278.35 K
RESULT TYPE: solubility (mole fraction)
Give bare numbers.

Prompt: Entry `O=S(=O)(c1ccccc1)N(F)S(=O)(=O)c1ccccc1` needs its solubility (mole fraction) filled in; supply it.
Completion: 0.000791

# credit: BigSolDB 2.1
